Cited source: BigSolDB 2.1

RECORDED CONDITIONS: in ethyl acetate, 308.15 K
MEASURED PARAMETER: solubility (mole fraction)
Output: the number by itself.

Q. Which solubility (mole fraction) is listed for Cc1nc2n(c(=O)c1CCN1CCC(c3noc4cc(F)ccc34)CC1)CCCC2O (stereo unspecified) ?
A. 0.000225

* * *

RECORDED CONDITIONS: in n-butyl acetate, 308.15 K
MEASURED PARAMETER: solubility (mole fraction)

Q. So what's the measured solubility (mole fraction) for this one? Cc1nc2n(c(=O)c1CCN1CCC(c3noc4cc(F)ccc34)CC1)CCCC2O (stereo unspecified)
A. 0.000204

* * *

RECORDED CONDITIONS: in methanol, 303.15 K
MEASURED PARAMETER: solubility (mole fraction)
Lab note: write the figure by itself, no unit.

Q. What measured solubility (mole fraction) goes with Cc1nc2n(c(=O)c1CCN1CCC(c3noc4cc(F)ccc34)CC1)CCCC2O (stereo unspecified) ?
A. 0.00026

* * *

RECORDED CONDITIONS: in acetonitrile, 323.15 K
MEASURED PARAMETER: solubility (mole fraction)
Kindly provide the number alone.

Q. Fill in: solubility (mole fraction) of Cc1nc2n(c(=O)c1CCN1CCC(c3noc4cc(F)ccc34)CC1)CCCC2O (stereo unspecified) is ___
A. 0.000263

* * *

RECORDED CONDITIONS: in THF, 318.15 K
MEASURED PARAMETER: solubility (mole fraction)
Give your answer as a number; write no unit.

Q. // returns reported solubility (mole fraction) for input Cc1nc2n(c(=O)c1CCN1CCC(c3noc4cc(F)ccc34)CC1)CCCC2O (stereo unspecified)
A. 0.00232

* * *

RECORDED CONDITIONS: in 1,4-dioxane, 313.15 K
MEASURED PARAMETER: solubility (mole fraction)
Please state the value as a number alone, without comment.

Q. If you can, please state the reported solubility (mole fraction) value of Cc1nc2n(c(=O)c1CCN1CCC(c3noc4cc(F)ccc34)CC1)CCCC2O (stereo unspecified) .
A. 0.00214

* * *

RECORDED CONDITIONS: in ethyl acetate, 313.15 K
MEASURED PARAMETER: solubility (mole fraction)
Respond numerically, and do not add a unit to the figure.

Q. Record request: solubility (mole fraction) value, item Cc1nc2n(c(=O)c1CCN1CCC(c3noc4cc(F)ccc34)CC1)CCCC2O (stereo unspecified)
A. 0.000311

* * *

RECORDED CONDITIONS: in n-butanol, 298.15 K
MEASURED PARAMETER: solubility (mole fraction)

Q. Param item = Cc1nc2n(c(=O)c1CCN1CCC(c3noc4cc(F)ccc34)CC1)CCCC2O (stereo unspecified) ; retrieve measured solubility (mole fraction).
A. 0.000179

* * *

RECORDED CONDITIONS: in acetone, 313.15 K
MEASURED PARAMETER: solubility (mole fraction)
The response must contain the number and no unit.

Q. Need solubility (mole fraction) of Cc1nc2n(c(=O)c1CCN1CCC(c3noc4cc(F)ccc34)CC1)CCCC2O (stereo unspecified) , thanks.
A. 0.000314

* * *

RECORDED CONDITIONS: in n-butyl acetate, 323.15 K
MEASURED PARAMETER: solubility (mole fraction)

Q. # get_value(readout='solubility (mole fraction)', item= Cc1nc2n(c(=O)c1CCN1CCC(c3noc4cc(F)ccc34)CC1)CCCC2O (stereo unspecified) )
A. 0.000514
